tested on: RPMI-8226; test: NCI tumour cell line growth inhibition, 48 h
Activity calls are given as the source filed them. Rule as the data show it: active = GI50 up to about 1.1 µM and inactive = higher.
quantity_name: GI50

Ask: State its GI50 on RPMI-8226: Cc1ccc(CC2(OCCN(C)C)CCC(C(C)(C)C)CC2)cc1 (stereo not drawn)
Result: 1.84 µM (inactive)

Ask: State its GI50 on RPMI-8226: O=C1C=CC2(C=C1)O[C@H](Cc1ccccc1)[C@@H](Cc1ccccc1)O2
Result: 0.177 µM (active)

Ask: State its GI50 on RPMI-8226: COc1cc(NS(C)(=O)=O)ccc1NCc1c[nH]c2ccc3nc(C)ccc3c12
Result: 17.1 µM (inactive)
